FYI, the data here is from patent US20060079453A1.

# targetDesc: HLA-B*5401 (Homo sapiens, UniProt P01889, A329T/C349S/D138N/D201E/E176V/E187T/E204Q/E69G/I76V/K202T/L119W/R155S/R180L/S121T/S35A/S48A/V127L/V306I/V36M/Y140L)
# protocolDetails: biochemical
# Format: binding
# testSettings: B*5401 binding affinity (IC50)
No end group written: not given here.
Measured IC50, listed per entry.
All answers are understood in nM, so give the number only.

entrySequence	unitAbbreviation	IC50
YPLTFGWCI	nM	79

From here, focus on the item given below.
[ask] // IC50 lookup, key: RPRGPGPGSEF
[reply] 2740
